assayMetric: melting point

Below, 3 compounds whose answers are already recorded.
# structureString, assayMetric, readoutValue
data = [
    ("Cc1c(C#N)c(N)n(Cc2c(Cl)cccc2Cl)c1C", "melting point", "194 to 196 °C"),
    ("Cc1nc2sccn2c1C(=O)O", "melting point", "164 to 165 °C"),
    ("Cc1nc(-c2ccc(N)cc2)cs1", "melting point", "140 to 141 °C"),
]

Continue with the next compound.
In: Any idea what its melting point is? The compound is `CN1CCOc2cc(Br)ccc21`
Out: 47 to 49 °C

---

assayMetric: melting point

Below, 3 compounds whose answers are already recorded.
# compound, melting point
records = [
    ("CCOC(=O)c1c(-c2ccc(-c3ccccc3)cc2)csc1N", "155 to 157 °C"),
    ("CSc1ccc([N+](=O)[O-])cc1", "65 to 68 °C"),
    ("CC1N=C(S)N2C(C)N=C(S)N12 (configuration not stated)", "182 to 184 °C"),
]

In: Any idea what its melting point is? The compound is `COc1ccccc1NC(=O)C(C(F)(F)F)C(F)(F)F`
Out: 163 °C

In: Any idea what its melting point is? The compound is O=C(O)C1OC1C(=O)O (configuration not stated)
Out: 148 to 149 °C

In: Any idea what its melting point is? The compound is `Cc1cc(C)c(N=C=S)c(C)c1`
Out: 63 to 64 °C

In: Any idea what its melting point is? The compound is `O=C(O)c1cc(O)c2cccc(O)c2n1`
Out: 297 to 298 °C

---

assayMetric: melting point

Below, 4 compounds whose answers are already recorded.
# compound, melting point
rows = [
    ("ON=C(c1cccs1)c1cccs1", "134 to 136 °C"),
    ("CC(=O)c1ccc(F)c(Br)c1", "56 °C"),
    ("COc1cccc(OC)c1Br", "93 °C"),
    ("COc1ccc(S(=O)(=O)c2coc(S(N)(=O)=O)c2)cc1", "118 °C"),
]

In: Any idea what its melting point is? The compound is `COP(=S)(OC)SCC(=O)N(C)C=O`
Out: 25.5 °C

In: Any idea what its melting point is? The compound is `N#Cc1ccc2sccc2c1`
Out: 69 to 71 °C

---

Item-by-item account of melting point

# molecule, assayMetric, readoutValue
rows = [
    ("O=C(O)CCC(=O)c1ccc(Cl)cc1", "melting point", "129 to 132 °C"),
]

In: Any idea what its melting point is? The molecule is `CC(=O)Oc1cn(C(C)=O)c2ccc(Br)cc12`
Out: 124 to 128 °C

In: Any idea what its melting point is? The molecule is `NC(=S)c1c(Cl)cc(C(F)(F)F)cc1Cl`
Out: 176 to 178 °C

In: Any idea what its melting point is? The molecule is `CCCCc1nc(C=O)c(Cl)[nH]1`
Out: 98 to 100 °C

In: Any idea what its melting point is? The molecule is `c1cc(CCc2ccncc2)ccn1`
Out: 107 to 113 °C

In: Any idea what its melting point is? The molecule is `CC1(C)N=C(c2ccccc2)C(C)(C)N1O`
Out: 78.6 to 80.4 °C

In: Any idea what its melting point is? The molecule is CCCC(C)(N)P(=O)(O)O (stereo not drawn)
Out: 258 to 262 °C

In: Any idea what its melting point is? The molecule is `CNCc1ccc(-c2cccs2)nc1`
Out: 65.5 to 66.5 °C
